Hey, just so you know, these numbers are from patent US20060093617A1.

Biological target: HLA-Cw06 (Homo sapiens, UniProt P10321, A176E/A330V/C350S/L171W/L180W/L218V/M285V/M309V/M331V/N104K/P208H/Q277E/Q291P/R121W/R243W/S101N/S123Y/S297R/T329A/T363A/V319A/V328M)
Construct: endogenous in cells
Assay: HLA class I competition cell-based binding assay
Where a SMILES comes first, the peptide text is derived from it.
Endpoint label: Ki (µM)
Note: unit µM is implicit; provide only the numeric part.

Provide one value: measured Ki of CC[C@H](C)[C@H](NC(=O)[C@H](CC(C)C)NC(=O)[C@H](CCCNC(=N)N)NC(=O)[C@H](C)NC(=O)[C@@H]1CCCN1C(=O)[C@H](CCCCN)NC(=O)[C@H](CCCNC(=N)N)NC(=O)CN)C(=O)N[C@H](C(=O)N[C@@H](Cc1ccccc1)C(=O)O)C(C)C (H-GRKPARLIVF-OH)
8.96

Provide one value: measured Ki of CC[C@H](C)[C@H](N)C(=O)N[C@@H](CCCNC(=N)N)C(=O)N[C@@H](CO)C(=O)N[C@@H](CC(C)C)C(=O)N[C@H](C(=O)N[C@@H](CCC(=O)O)C(=O)N[C@@H](CCCNC(=N)N)C(=O)N[C@@H](CC(C)C)C(=O)N[C@@H](Cc1ccc(O)cc1)C(=O)O)[C@@H](C)O
0.318

Could you now look at the following compound, please?
Provide one value: measured Ki of CC[C@H](C)[C@H](NC(=O)[C@H](CC(C)C)NC(=O)[C@H](CCCNC(=N)N)NC(=O)[C@H](C)NC(=O)[C@@H]1CCCN1C(=O)[C@H](CCCCN)NC(=O)[C@@H](N)CCCNC(=N)N)C(=O)N[C@H](C(=O)N[C@@H](Cc1ccccc1)C(=O)O)C(C)C (H-RKPARLIVF-OH; N-terminus and C-terminus assumed)
8.28

====

Target: HLA-Cw06 (Homo sapiens, UniProt P10321, A176E/A330V/C350S/L171W/L180W/L218V/M285V/M309V/M331V/N104K/P208H/Q277E/Q291P/R121W/R243W/S101N/S123Y/S297R/T329A/T363A/V319A/V328M)
Construct: endogenous in cells
Experiment: HLA class I competition cell-based binding assay
Where a SMILES comes first, the peptide text is derived from it.
Endpoint label: Ki
Provide the measurement as a number trailed by its unit.

Solved entries:
Provide one value: measured Ki of CC[C@H](C)[C@H](N)C(=O)N[C@@H](CCCNC(=N)N)C(=O)N[C@@H](CO)C(=O)N[C@@H](CC(C)C)C(=O)N[C@H](C(=O)N[C@@H](CCC(=O)O)C(=O)N[C@@H](CCCNC(=N)N)C(=O)N[C@@H](CC(C)C)C(=O)N[C@@H](Cc1ccc(O)cc1)C(=O)N[C@H](C(=O)O)[C@@H](C)CC)[C@@H](C)O (H-IRSLTERLYI-OH; N-terminus and C-terminus assumed)
6.22 µM

Provide one value: measured Ki of CC[C@H](C)[C@H](NC(=O)[C@H](CCC(N)=O)NC(=O)CNC(=O)CNC(=O)CNC(=O)[C@@H]1CCCN1C(=O)[C@H](Cc1ccccc1)NC(=O)[C@H](CCCCN)NC(=O)[C@@H](N)C(C)C)C(=O)N[C@H](C(=O)O)C(C)C (H-VKFPGGGQIV-OH; N-terminus and C-terminus assumed)
0.417 µM

***
Provide one value: measured Ki of CC(C)C[C@H](NC(=O)[C@@H](NC(=O)[C@H](CCCCN)NC(=O)[C@H](Cc1ccc(O)cc1)NC(=O)CNC(=O)[C@H](CCC(N)=O)NC(=O)[C@H](C)NC(=O)[C@H](C)NC(=O)[C@@H](N)Cc1ccc(O)cc1)C(C)C)C(=O)N[C@H](C(=O)O)C(C)C (H-YAAQGYKVLV-OH; N-terminus and C-terminus assumed)
9.21 µM

Provide one value: measured Ki of CC(C)[C@H](NC(=O)[C@H](CCCNC(=N)N)NC(=O)[C@H](CCC(N)=O)NC(=O)CNC(=O)[C@@H]1CCCN1C(=O)[C@H](CO)NC(=O)[C@H](Cc1ccc(O)cc1)NC(=O)[C@H](CCC(N)=O)NC(=O)[C@@H](N)Cc1ccccc1)C(=O)O (H-FQYSPGQRV-OH)
0.387 µM

====

Catalogue of molecules with associated IC50
Target: B*0702 (Homo sapiens, UniProt P01889)
Construct: endogenous in cells
Assay: Competition binding assay using soluble HLA class I
Where a SMILES comes first, the peptide text is derived from it.
Note: unit nM is implicit; provide only the numeric part.

Provide one value: measured IC50 of CC(C)C[C@H](NC(=O)[C@H](CCCNC(=N)N)NC(=O)[C@@H](NC(=O)[C@H](CO)NC(=O)[C@@H](NC(=O)[C@H](CCC(=O)O)NC(=O)[C@H](C)NC(=O)[C@@H]1CCCN1C(=O)[C@@H](N)[C@@H](C)O)[C@@H](C)O)C(C)C)C(=O)O
375

***
Provide one value: measured IC50 of CSCC[C@H](NC(=O)CNC(=O)[C@H](CO)NC(=O)[C@@H]1CCCN1C(=O)[C@H](CCCNC(=N)N)NC(=O)[C@H](CCC(=O)O)NC(=O)CNC(=O)[C@@H]1CCCN1C(=O)[C@@H](N)[C@@H](C)O)C(=O)O (H-TPGERPSGM-OH)
199

====

Target: HLA-Cw06 (Homo sapiens, UniProt P10321, A176E/A330V/C350S/L171W/L180W/L218V/M285V/M309V/M331V/N104K/P208H/Q277E/Q291P/R121W/R243W/S101N/S123Y/S297R/T329A/T363A/V319A/V328M)
Construct: endogenous in cells
Assay: HLA class I competition cell-based binding assay
Where a SMILES comes first, the peptide text is derived from it.
Endpoint label: pKi
Reminder that pKi means the negative base-10 logarithm of the concentration expressed in mol/L.

Provide one value: measured pKi of CC(C)C[C@H](NC(=O)[C@H](CCCNC(=N)N)NC(=O)[C@@H](N)Cc1ccc(O)cc1)C(=O)NCC(=O)N[C@@H](C)C(=O)N[C@H](C(=O)N[C@@H](CCC(N)=O)C(=O)N[C@@H](CC(N)=O)C(=O)N[C@@H](CCC(=O)O)C(=O)N[C@H](C(=O)O)C(C)C)C(C)C
6.66

Provide one value: measured pKi of CC(C)C[C@H](NC(=O)CNC(=O)[C@H](CCCNC(=N)N)NC(=O)[C@H](Cc1ccc(O)cc1)NC(=O)[C@H](Cc1ccc(O)cc1)NC(=O)[C@H](C)NC(=O)[C@@H](NC(=O)[C@H](C)NC(=O)[C@@H](N)CC(N)=O)C(C)C)C(=O)O
4.97

Provide one value: measured pKi of CC[C@H](C)[C@H](NC(=O)[C@H](CC(C)C)NC(=O)[C@H](CCCNC(=N)N)NC(=O)[C@H](C)NC(=O)[C@@H]1CCCN1C(=O)[C@H](CCCCN)NC(=O)[C@H](CCCNC(=N)N)NC(=O)CN)C(=O)N[C@H](C(=O)O)C(C)C (H-GRKPARLIV-OH; N-terminus and C-terminus assumed)
5.69

Provide one value: measured pKi of CC(C)[C@H](NC(=O)CNC(=O)[C@H](CCCNC(=N)N)NC(=O)[C@@H](NC(=O)[C@H](CS)NC(=O)[C@@H](NC(=O)[C@H](C)NC(=O)[C@H](C)NC(=O)[C@H](CCCNC(=N)N)NC(=O)[C@@H](N)Cc1ccccc1)C(C)C)[C@@H](C)O)C(=O)O (H-FRAAVCTRGV-OH; N-terminus and C-terminus assumed)
6.31

Provide one value: measured pKi of CC(C)C[C@H](NC(=O)[C@@H](NC(=O)[C@H](CCCCN)NC(=O)[C@H](Cc1ccc(O)cc1)NC(=O)CNC(=O)[C@H](CCC(N)=O)NC(=O)[C@H](C)NC(=O)[C@H](C)N)C(C)C)C(=O)N[C@H](C(=O)O)C(C)C (H-AAQGYKVLV-OH; N-terminus and C-terminus assumed)
5.20

***
Provide one value: measured pKi of CC(C)C[C@H](NC(=O)[C@H](Cc1ccccc1)NC(=O)[C@H](CCCCN)NC(=O)CNC(=O)[C@H](Cc1ccc(O)cc1)NC(=O)[C@@H](NC(=O)[C@H](CO)NC(=O)[C@H](Cc1ccc(O)cc1)NC(=O)[C@@H](N)[C@@H](C)O)[C@@H](C)O)C(=O)O
5.31

Provide one value: measured pKi of CC(C)C[C@H](NC(=O)[C@@H](NC(=O)[C@H](CCCNC(=N)N)NC(=O)[C@@H](NC(=O)CNC(=O)[C@H](Cc1c[nH]cn1)NC(=O)[C@H](C)NC(=O)[C@H](CC(C)C)NC(=O)[C@H](C)N)C(C)C)C(C)C)C(=O)O
5.48
